TARGET_OR_SYSTEM: HCV polymerase 1B (Δ21 NS5B) (Hepatitis C virus genotype 1b)
Construct: 20 to 50nM Δ21 NS5B
Sequence (P26663 2420-2989, stated change not applied): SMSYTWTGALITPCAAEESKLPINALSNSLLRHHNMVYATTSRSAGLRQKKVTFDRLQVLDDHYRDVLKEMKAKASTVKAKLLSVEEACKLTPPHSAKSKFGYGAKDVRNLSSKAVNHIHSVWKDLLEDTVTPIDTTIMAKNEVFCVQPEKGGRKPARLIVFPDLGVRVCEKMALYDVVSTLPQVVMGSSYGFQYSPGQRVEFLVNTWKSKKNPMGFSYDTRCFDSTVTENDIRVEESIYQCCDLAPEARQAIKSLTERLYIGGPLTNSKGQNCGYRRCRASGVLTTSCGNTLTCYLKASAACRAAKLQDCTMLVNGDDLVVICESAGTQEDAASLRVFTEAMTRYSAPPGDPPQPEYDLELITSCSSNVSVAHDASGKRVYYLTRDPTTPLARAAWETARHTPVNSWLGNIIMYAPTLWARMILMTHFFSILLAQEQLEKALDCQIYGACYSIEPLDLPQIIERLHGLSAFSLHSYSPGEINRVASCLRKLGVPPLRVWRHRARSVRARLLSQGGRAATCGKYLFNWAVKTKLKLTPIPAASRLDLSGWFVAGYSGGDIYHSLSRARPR
ASSAY_NOTES: biochemical
pIC50: −log10 of the molar value.
QUANTITY_NAME: pIC50

- COc1c(-c2ccc3cc(NS(C)(=O)=O)ccc3c2)cc(-n2ccc(=O)[nH]c2=O)cc1C(C)(C)C(=O)O: < 6.00
- COc1c(N2CCc3cc(NS(C)(=O)=O)ccc3C2)cc(-n2ccc(=O)[nH]c2=O)cc1C(C)(C)C: 7.00 to 8.00
- COc1c(-c2ccc3cc(NS(C)(=O)=O)ccc3c2)cc(-n2ccc(=O)[nH]c2=O)cc1C(C)(C)CO: 7.00 to 8.00
- COc1c(NS(C)(=O)=O)cc(-n2ccc(=O)[nH]c2=O)cc1-c1ccc2cc(NS(C)(=O)=O)ccc2c1: < 6.00
- COCC(C)(C)c1cc(-n2ccc(=O)[nH]c2=O)cc(-c2ccc3cc(NS(C)(=O)=O)ccc3c2)c1OC: 7.00 to 8.00
- COc1c(-c2ccc3nc(Cl)sc3c2)cc(-n2ccc(=O)[nH]c2=O)cc1C(C)(C)C: 7.00 to 8.00
- COc1c(N2Cc3ccc(NS(C)(=O)=O)cc3C2)cc(-n2ccc(=O)[nH]c2=O)cc1C(C)(C)C: 7.00 to 8.00
- CC(C)(C)c1cc(-c2ccc3cc(NS(C)(=O)=O)ccc3c2)cc(-n2ccc(=O)[nH]c2=O)c1: 7.00 to 8.00
- COc1c(C#C[Si](C)(C)C)cc(-n2ccc(=O)[nH]c2=O)cc1-c1ccc2cc(NS(C)(=O)=O)ccc2c1: < 6.00
- COc1c(-c2nc3cc([N+](=O)[O-])ccc3o2)cc(N2CCC(=O)NC2=O)cc1C(C)(C)C: 6.00 to 7.00
- COc1c(-c2ccc3cc(NS(C)(=O)=O)ccc3c2)cc(-n2ccc(=O)[nH]c2=O)cc1C(F)(F)C(F)(F)F: 7.00 to 8.00
- COc1c(-c2ccc3c(c2)/C(=N/NS(C)(=O)=O)CC3)cc(-n2ccc(=O)[nH]c2=O)cc1-c1cccs1: 7.00 to 8.00
- COc1c(-c2ccc3c(c2)CC=C3C(C)(C)NS(C)(=O)=O)cc(-n2ccc(=O)[nH]c2=O)cc1C(C)(C)C: 6.00 to 7.00
- COc1c(-c2ccc3c(c2)CNC3=O)cc(-n2ccc(=O)[nH]c2=O)cc1C(C)(C)C: 7.00 to 8.00
- COc1c(-c2nc3ccc(NS(C)(=O)=O)cc3s2)cc(N2CCC(=O)NC2=O)cc1C(C)(C)C: 7.00 to 8.00
- COc1c(-c2ccc3c(c2)/C(=N/NS(C)(=O)=O)CC3)cc(-n2ccc(=O)[nH]c2=O)cc1-c1ccco1: 7.00 to 8.00
- COc1c(-c2ccc3cc(NS(C)(=O)=O)ccc3c2)cc(-n2ccc(=O)[nH]c2=O)cc1-c1cccs1: 7.00 to 8.00
- COc1c(-c2ccc3cc(NS(C)(=O)=O)ccc3c2)cc(-n2ccc(=O)[nH]c2=O)cc1-c1ccco1: 7.00 to 8.00
- COc1c(-c2ccccc2)cc(-n2ccc(=O)[nH]c2=O)cc1-c1ccc2cc(NS(C)(=O)=O)ccc2c1: 6.00 to 7.00
- COc1c(-c2ccc3c(c2)CCN3S(C)(=O)=O)cc(-n2ccc(=O)[nH]c2=O)cc1C(C)(C)C: 7.00 to 8.00
- COc1c(-c2ccc3nc(-n4c(C)ccc4C)sc3c2)cc(-n2ccc(=O)[nH]c2=O)cc1C(C)(C)C: < 6.00
- COc1c(-c2nc3cc(NS(C)(=O)=O)ccc3o2)cc(N2CCC(=O)NC2=O)cc1C(C)(C)C: 7.00 to 8.00
- COc1c(-c2ccc3cc(NS(C)(=O)=O)ccc3c2)cc(-n2ccc(=O)[nH]c2=O)cc1-c1ccc(C)s1: 6.00 to 7.00
- COc1c(-c2nc3cc(NS(C)(=O)=O)ccc3s2)cc(N2CCC(=O)NC2=O)cc1C(C)(C)C: 7.00 to 8.00
- COc1c(-c2ccc3c(c2)CC[C@@]3(F)CNS(C)(=O)=O)cc(-n2ccc(=O)[nH]c2=O)cc1C(C)(C)C: 7.00 to 8.00
- COc1c(-c2ccc3c(c2)CC[C@]3(F)CNS(C)(=O)=O)cc(-n2ccc(=O)[nH]c2=O)cc1C(C)(C)C: 7.00 to 8.00
- COc1c(-c2nc3cc(NS(C)(=O)=O)ccc3[nH]2)cc(N2CCC(=O)NC2=O)cc1C(C)(C)C: 6.00 to 7.00
- COc1c(-c2ccsc2)cc(-n2ccc(=O)[nH]c2=O)cc1-c1ccc2cc(NS(C)(=O)=O)ccc2c1: 7.00 to 8.00
- COc1c(I)cc(-n2ccc(=O)[nH]c2=O)cc1-c1ccc2cc(NS(C)(=O)=O)ccc2c1: 7.00 to 8.00

----------
TARGET_OR_SYSTEM: HCV polymerase 1A (Δ21 NS5B) (Hepatitis C virus genotype 1a)
Construct: 20 to 50nM Δ21 NS5B
Sequence (P27958 2421-2990, stated change not applied): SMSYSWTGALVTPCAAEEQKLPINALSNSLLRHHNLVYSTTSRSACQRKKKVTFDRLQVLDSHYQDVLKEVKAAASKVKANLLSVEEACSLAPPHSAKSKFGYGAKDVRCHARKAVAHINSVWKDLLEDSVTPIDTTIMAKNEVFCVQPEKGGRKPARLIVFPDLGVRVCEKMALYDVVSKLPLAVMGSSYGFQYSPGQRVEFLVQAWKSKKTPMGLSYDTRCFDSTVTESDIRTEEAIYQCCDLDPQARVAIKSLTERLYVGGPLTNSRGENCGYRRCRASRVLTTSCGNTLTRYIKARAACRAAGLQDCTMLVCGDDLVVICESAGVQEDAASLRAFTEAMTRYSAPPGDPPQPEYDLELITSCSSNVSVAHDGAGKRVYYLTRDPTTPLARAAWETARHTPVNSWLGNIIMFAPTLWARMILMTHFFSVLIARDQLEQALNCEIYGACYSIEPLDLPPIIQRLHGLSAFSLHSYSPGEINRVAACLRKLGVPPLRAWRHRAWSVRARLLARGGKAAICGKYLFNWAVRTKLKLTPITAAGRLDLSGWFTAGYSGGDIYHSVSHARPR
ASSAY_NOTES: HCV Polymerase Inhibition Assay (1a)
Type: biochemical
QUANTITY_NAME: IC50

- COc1c(-c2ccc3cc(NS(C)(=O)=O)ccc3c2)cc(-n2ccc(=O)[nH]c2=O)cc1-c1ccco1: < 10 nM
- COc1c(-c2ccc3cc(NS(C)(=O)=O)ccc3c2)cc(-n2ccc(=O)[nH]c2=O)cc1-c1cccs1: < 10 nM
- COc1c(-c2ccc3nc(NS(C)(=O)=O)cnc3c2)cc(-n2ccc(=O)[nH]c2=O)cc1C(C)(C)C: 10 to 100 nM
- COc1c(-c2nc3ccc(NS(C)(=O)=O)cc3o2)cc(N2CCC(=O)NC2=O)cc1C(C)(C)C: 100 to 1000 nM
- COCC(C)(C)c1cc(-n2ccc(=O)[nH]c2=O)cc(-c2ccc3cc(NS(C)(=O)=O)ccc3c2)c1OC: 10 to 100 nM
- COc1c(I)cc(-n2ccc(=O)[nH]c2=O)cc1-c1ccc2cc(NS(C)(=O)=O)ccc2c1: < 10 nM
- COc1c(C#C[Si](C)(C)C)cc(-n2ccc(=O)[nH]c2=O)cc1-c1ccc2cc(NS(C)(=O)=O)ccc2c1: > 1000 nM
- COc1c(-c2nc3cc(NS(C)(=O)=O)ccc3s2)cc(N2CCC(=O)NC2=O)cc1C(C)(C)C: 10 to 100 nM
- COc1c(-c2ccc3c(c2)CC[C@]3(F)CNS(C)(=O)=O)cc(-n2ccc(=O)[nH]c2=O)cc1C(C)(C)C: < 10 nM
- COc1c(N2CCc3cc(NS(C)(=O)=O)ccc3C2)cc(-n2ccc(=O)[nH]c2=O)cc1C(C)(C)C: < 10 nM
- CCC(C)(C)c1cc(-n2ccc(=O)[nH]c2=O)cc(-c2ccc3cc(NS(C)(=O)=O)ccc3c2)c1OC: < 10 nM
- COc1c(-c2ccc3cc(NS(C)(=O)=O)ccc3c2)cc(-n2ccc(=O)[nH]c2=O)cc1-c1ccc(C)o1: < 10 nM
- COc1c(-c2ccc3cc(NS(C)(=O)=O)ccc3c2)cc(-n2ccc(=O)[nH]c2=O)cc1S(C)(=O)=O: 10 to 100 nM
- COc1c(-c2ccccc2)cc(-n2ccc(=O)[nH]c2=O)cc1-c1ccc2cc(NS(C)(=O)=O)ccc2c1: 100 to 1000 nM
- COc1c(-c2ccc3c(c2)/C(=N/NS(C)(=O)=O)CC3)cc(-n2ccc(=O)[nH]c2=O)cc1-c1ccco1: < 10 nM
- COc1c(-c2ccc3c(C)coc3c2)cc(-n2ccc(=O)[nH]c2=O)cc1C(C)(C)C: 100 to 1000 nM
- COc1c(-c2ccc3c(CNS(C)(=O)=O)noc3c2)cc(-n2ccc(=O)[nH]c2=O)cc1C(C)(C)C: 100 to 1000 nM
- COc1c(N2Cc3ccc(NS(C)(=O)=O)cc3C2)cc(-n2ccc(=O)[nH]c2=O)cc1C(C)(C)C: 10 to 100 nM
- COc1c(-c2ccc3ccccc3c2)cc(-n2ccc(=O)[nH]c2=O)cc1C(C)(C)C: 100 to 1000 nM
- COc1c(-c2ccc3c(c2)CC[C@@]3(F)CNS(C)(=O)=O)cc(-n2ccc(=O)[nH]c2=O)cc1C(C)(C)C: < 10 nM
- COc1c(-c2ccoc2)cc(-n2ccc(=O)[nH]c2=O)cc1-c1ccc2cc(NS(C)(=O)=O)ccc2c1: 10 to 100 nM
- CCCNc1nc2ccc(-c3cc(-n4ccc(=O)[nH]c4=O)cc(C(C)(C)C)c3OC)cc2s1: 100 to 1000 nM
- COc1c(-c2nc3cc(NS(C)(=O)=O)ccc3o2)cc(-n2ccc(=O)[nH]c2=O)cc1C(C)(C)C: 10 to 100 nM
- COc1c(-c2ccc3cc(NS(C)(=O)=O)ccc3c2)cc(N2CCC(=O)NC2=O)cc1C(C)(C)C: < 10 nM
- COc1c(-c2ccc3cc(NS(C)(=O)=O)ccc3c2)cc(-n2ccc(=O)[nH]c2=O)cc1C(F)(F)C(F)(F)F: < 10 nM
- COc1c(-c2nc3cc([N+](=O)[O-])ccc3o2)cc(N2CCC(=O)NC2=O)cc1C(C)(C)C: 100 to 1000 nM
- COc1c(-c2ccc3nc(Cl)sc3c2)cc(-n2ccc(=O)[nH]c2=O)cc1C(C)(C)C: 100 to 1000 nM
- COc1c(-c2nc3cc(NS(C)(=O)=O)ccc3[nH]2)cc(N2CCC(=O)NC2=O)cc1C(C)(C)C: 100 to 1000 nM
- COc1c(-c2ccc3nc(-n4c(C)ccc4C)sc3c2)cc(-n2ccc(=O)[nH]c2=O)cc1C(C)(C)C: > 1000 nM

The reported numbers originate from patent US8501238B2.
